- targetDesc: androgen receptor (Rattus norvegicus (Rat), UniProt P15207)
- Sequence (P15207 whole entry, looked up): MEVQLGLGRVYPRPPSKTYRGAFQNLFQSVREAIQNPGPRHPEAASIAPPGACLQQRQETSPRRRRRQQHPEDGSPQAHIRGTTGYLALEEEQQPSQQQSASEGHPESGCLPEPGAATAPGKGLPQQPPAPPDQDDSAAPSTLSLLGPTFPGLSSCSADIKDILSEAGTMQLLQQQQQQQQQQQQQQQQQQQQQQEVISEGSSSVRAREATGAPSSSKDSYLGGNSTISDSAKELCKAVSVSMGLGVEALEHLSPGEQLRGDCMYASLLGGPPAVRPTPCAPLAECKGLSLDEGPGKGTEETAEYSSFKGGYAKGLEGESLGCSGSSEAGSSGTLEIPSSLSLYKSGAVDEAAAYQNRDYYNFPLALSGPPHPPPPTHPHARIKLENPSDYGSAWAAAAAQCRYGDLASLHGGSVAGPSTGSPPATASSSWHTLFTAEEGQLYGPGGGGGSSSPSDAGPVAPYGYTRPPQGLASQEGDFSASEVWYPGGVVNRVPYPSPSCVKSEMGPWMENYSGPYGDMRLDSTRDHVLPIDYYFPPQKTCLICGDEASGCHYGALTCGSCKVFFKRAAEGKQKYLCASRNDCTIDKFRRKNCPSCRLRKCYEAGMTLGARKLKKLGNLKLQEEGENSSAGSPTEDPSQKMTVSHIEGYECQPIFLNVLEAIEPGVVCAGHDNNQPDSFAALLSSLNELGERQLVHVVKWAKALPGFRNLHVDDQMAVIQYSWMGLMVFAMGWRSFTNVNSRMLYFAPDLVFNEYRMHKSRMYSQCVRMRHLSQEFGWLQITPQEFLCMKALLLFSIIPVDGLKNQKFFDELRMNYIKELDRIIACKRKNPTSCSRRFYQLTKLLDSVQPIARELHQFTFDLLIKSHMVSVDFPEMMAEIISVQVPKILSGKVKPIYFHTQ
- experiment: androgen receptor binding assay (fluorescence polarization, AR-Fluormone complex)
Classify: label 1 when IC50 is strictly less than 20 nM; label 0 when IC50 is not.

Answered cases to consult:
CC(=O)O[C@@H](C)[C@@H](Nc1ccc(C#N)c(Cl)c1C)c1nnc(-c2ccc(C#N)cc2)o1 : label 0
CC(=O)O[C@@H](C)[C@@H](Nc1ccc(C#N)c(Cl)c1C)c1nnc(-c2ccccc2)o1 : label 1
CCC(=O)O[C@@H](C)[C@@H](Nc1ccc(C#N)c(Cl)c1C)c1nnc(-c2ccccc2)o1 : label 0
CC(=O)Oc1ccc(-c2nnc([C@H](Nc3ccc(C#N)c(Cl)c3C)[C@H](C)OC(C)=O)o2)cc1 : label 0
[2H]c1ccc(-c2nnc([C@H](Nc3ccc(C#N)c(Cl)c3C)[C@H](C)O)o2)cc1 : label 1

Alright, here's another compound for you.
Challenge: Hello, is IC50 of the following compound strictly smaller than 20 nM? CCCC(=O)O[C@@H](C)[C@@H](Nc1ccc(C#N)c(Cl)c1C)c1nnc(-c2ccc(C#N)cc2)o1
Response given: label 1
